# test.system: furin, P09958;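 further: purified furin at 1:10 enzyme:substrate in 50 mM HEPES pH 7.5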
# Sequence (P09958 whole entry): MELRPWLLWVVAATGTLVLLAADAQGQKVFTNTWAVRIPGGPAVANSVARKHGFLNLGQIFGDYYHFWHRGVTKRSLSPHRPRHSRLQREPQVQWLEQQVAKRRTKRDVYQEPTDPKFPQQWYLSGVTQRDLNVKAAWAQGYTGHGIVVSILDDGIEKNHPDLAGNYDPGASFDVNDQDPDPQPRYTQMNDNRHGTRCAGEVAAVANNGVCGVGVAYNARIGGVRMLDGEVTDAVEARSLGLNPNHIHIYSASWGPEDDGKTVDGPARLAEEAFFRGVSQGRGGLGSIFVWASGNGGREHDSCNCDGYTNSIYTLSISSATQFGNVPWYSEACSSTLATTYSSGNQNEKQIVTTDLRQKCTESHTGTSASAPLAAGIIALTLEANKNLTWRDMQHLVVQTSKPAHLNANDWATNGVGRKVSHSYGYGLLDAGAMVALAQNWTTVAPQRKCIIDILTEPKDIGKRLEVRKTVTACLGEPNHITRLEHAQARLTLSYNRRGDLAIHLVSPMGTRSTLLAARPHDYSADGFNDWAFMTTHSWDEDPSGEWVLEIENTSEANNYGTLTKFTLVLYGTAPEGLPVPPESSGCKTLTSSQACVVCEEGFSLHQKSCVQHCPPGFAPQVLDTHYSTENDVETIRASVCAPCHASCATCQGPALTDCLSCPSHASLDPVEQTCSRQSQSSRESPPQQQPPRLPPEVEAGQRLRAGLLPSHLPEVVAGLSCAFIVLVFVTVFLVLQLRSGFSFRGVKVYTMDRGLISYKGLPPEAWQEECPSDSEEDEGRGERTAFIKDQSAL
# test.protocol: furin cleavage Z-score vs untreated control; higher = more cleavage, active = 3.5 or more, inactive = 1 or less, 8 variable residues between constant flanks
# settings: 15 min
The other results are listed elsewhere or left out. The hit rate among all sequences tested is not known here.
observed.property: furin cleavage Z-score
Give the value as a plain number.

Return furin cleavage Z-score (reported value) for this sequence: CAEKVTSTWVAGNASASA [HC2174]
1.1

Return furin cleavage Z-score (reported value) for this sequence: CALRNRLFRGAGNASASA [FS-359]
1.52

Return furin cleavage Z-score (reported value) for this sequence: CARQPRSNGDAGNASASA [FS-2292]
-0.49

Return furin cleavage Z-score (reported value) for this sequence: CAFDQGWGPIAGNASASA [HC393]
-1.32

Return furin cleavage Z-score (reported value) for this sequence: CARSPRPRGDAGNASASA [FS-3090]
-0.595

Return furin cleavage Z-score (reported value) for this sequence: CARLHRFAPPAGNASASA [HC1225]
1.01

Return furin cleavage Z-score (reported value) for this sequence: CARKKRISANAGNASASA [FS-1827]
0.21

Return furin cleavage Z-score (reported value) for this sequence: CAQRNLKKRGAGNASASA [FS-914]
13.1

Return furin cleavage Z-score (reported value) for this sequence: CALRTREKRGAGNASASA [FS-549]
7.31

Return furin cleavage Z-score (reported value) for this sequence: CAPLARPRRDAGNASASA [FS-556]
7.62

Return furin cleavage Z-score (reported value) for this sequence: CAHRFAPPCKAGNASASA [HC1226]
-0.755

Return furin cleavage Z-score (reported value) for this sequence: CAADLEVVTSAGNASASA [HC986]
-0.606

Return furin cleavage Z-score (reported value) for this sequence: CAGLLRFCALAGNASASA [HC619]
-0.963

Return furin cleavage Z-score (reported value) for this sequence: CAPAPSGCPPAGNASASA [HC1346]
-0.997

Return furin cleavage Z-score (reported value) for this sequence: CARKKRSAQNAGNASASA [FS-2036]
14

Return furin cleavage Z-score (reported value) for this sequence: CAVVCCSMIYAGNASASA [HC2064]
-0.994

Return furin cleavage Z-score (reported value) for this sequence: CAKHNRPRRDAGNASASA [FS-602]
11.7

Return furin cleavage Z-score (reported value) for this sequence: CARLGRQVDSAGNASASA [FS-1738]
0.283

Return furin cleavage Z-score (reported value) for this sequence: CAKVKRSQGDAGNASASA [FS-1985]
3.48

Return furin cleavage Z-score (reported value) for this sequence: CATLPCSGSWAGNASASA [HC1845]
-0.261

Return furin cleavage Z-score (reported value) for this sequence: CAAKRRPRRMAGNASASA [FS-1302]
7.84

Return furin cleavage Z-score (reported value) for this sequence: CAQKKRSAQYAGNASASA [FS-2878]
0.984

Return furin cleavage Z-score (reported value) for this sequence: CAMMSRIFRHAGNASASA [FS-1236]
-0.194

Return furin cleavage Z-score (reported value) for this sequence: CAPLARAAWEAGNASASA [HC1566]
1.75

Return furin cleavage Z-score (reported value) for this sequence: CATTPPSGSWAGNASASA [HC60]
-0.299

Return furin cleavage Z-score (reported value) for this sequence: CAEVVTDTWVAGNASASA [HC152]
0.416

Return furin cleavage Z-score (reported value) for this sequence: CAYDVVCCSMAGNASASA [HC2109]
-1.03

Return furin cleavage Z-score (reported value) for this sequence: CALHKRQVGDAGNASASA [FS-1675]
-0.439

Return furin cleavage Z-score (reported value) for this sequence: CASLCRYRRVAGNASASA [FS-1657]
6.79

Return furin cleavage Z-score (reported value) for this sequence: CAPGPRPRRDAGNASASA [FS-472]
15

Hello, the source for this data is the supplement of paper PMC3545927, in case you need it.
